Values compiled from patent US20210070747A1.

target: E. coli DNA gyrase (Escherichia coli, UniProt P0AES6); construct: made in house; host or cells: E. coli BL21 (DE3); test: Test for evaluating the activity of inhibiting E. coli DNA gyrase enzyme (Method 2, supercoiling, recombinant gyrA/gyrB complex); type: biochemical
Give measured pIC50 for each item. Keep answers brief.
Friendly reminder that pIC50 comes from taking -log10 of the concentration in mol/L.

What value of measured pIC50 is listed for CNc1cc(F)cc2c(NCCN3CCOCC3)c(C(=O)Nc3ccc(C(=O)O)cc3)c(=O)[nH]c12.O=CO ?
7.84

What value of measured pIC50 is listed for CNc1cc(F)cc2c(NCCN)c(C(=O)Nc3ccc(C(=O)O)cc3)c(=O)[nH]c12.O=CO ?
9.03

What value of measured pIC50 is listed for CNc1cc(F)cc2cc(C(=O)Nc3ccc(C(=O)O)cc3)c(=O)[nH]c12 ?
9.44

What value of measured pIC50 is listed for CNc1cc(F)cc2c(O)c(C(=O)Nc3ccc(C(=O)NS(=O)(=O)N(C)C)cc3)c(=O)[nH]c12 ?
8.58
